# System: HCT116 MTAP-deleted cell lines
# experimental-details: Cell viability assay (CellTiter-Glo, 7 days), HCT116 MTAP-deleted
# Type: cell-based
# settings: Homo sapiens, HCT-116; cell viability assay, HCT116 MTAP-deleted; class symbols; read-out: CC50
# Description: Control compounds were analyzed in parallel each time for quality control. In Brief, on Day -1, a serial dilution of stock compounds in DMSO was performed using BioMek liquid handlers and dispensed using Echo acoustic dispenser into 384 well plates. […] Compound plates were stored as frozen until the cells were ready for seeding. […] On Day 7, the viability of cells was measured using a CTG assay kit (CellTitre-Glo;Promega cat no. G7573). […]
quantity-name: CC50

Case Cc1ncn2c1c(N)nc1cnc(C(=O)N3CCC[C@@H]4Oc5c(ccc(OC(F)(F)F)c5F)[C@@H]43)cc12 [Fg-62] , HCT116 MTAP-deleted cell lines, CC50 recorded as < 100 nM

Case CN(C(=O)c1ccc2nc(N)c3cncn3c2c1)[C@@H]1COc2cc(C#CC3(O)COC3)ccc21 [Ff-527] , HCT116 MTAP-deleted cell lines, CC50 recorded as 100 to 1000 nM

Case C[C@@H]1CN(C(=O)c2ccc3nc(N)c4cncn4c3c2)[C@H]2c3cc(F)c(OC(F)(F)F)cc3C[C@H]2O1 (single isomer, unassigned) [Ff-628] , HCT116 MTAP-deleted cell lines, CC50 recorded as < 100 nM

Case [2H]C1([2H])CC[C@@H]2Oc3cc(OC(F)(F)F)ccc3[C@@H]2N1C(=O)c1cc2c(cn1)nc(N)c1cncn12 [Fg-59] , HCT116 MTAP-deleted cell lines, CC50 recorded as < 100 nM

Case CN(Cc1ccc(-c2cnn(C(F)F)c2)cc1Cl)C(=O)c1cc2c(cc1F)nc(N)c1cncn12 [Ff-551] , HCT116 MTAP-deleted cell lines, CC50 recorded as 100 to 1000 nM

Case CN(C(=O)c1cc2c(cc1F)nc(N)c1cncn12)[C@@H]1COc2cc(C3=CCOC3)ccc21 [Ff-483] , HCT116 MTAP-deleted cell lines, CC50 recorded as < 100 nM

Case Nc1nc2cc(F)c(C(=O)N3CCC[C@@H]4Oc5cc(C(F)(F)F)ccc5[C@@H]43)cc2n2c(Cl)ncc12 (single isomer, unassigned) [Ff-646] , HCT116 MTAP-deleted cell lines, CC50 recorded as < 100 nM

Case Nc1nc2cc(F)c(C(=O)N3CCC[C@@H]4Oc5cc(OC(F)(F)F)ccc5[C@@H]43)cc2n2cncc12 (single isomer, unassigned) [Ff-395] , HCT116 MTAP-deleted cell lines, CC50 recorded as < 100 nM

Case Cc1ncc2c(N)nc3cc(F)c(C(=O)N4C[C@@H](F)C[C@@H]5Oc6cc(C(F)(F)F)ccc6[C@@H]54)cc3n12 [Ff-657] , HCT116 MTAP-deleted cell lines, CC50 recorded as < 100 nM

Case C[C@@H]1CN(C(=O)c2ccc3nc(N)c4cncn4c3c2)[C@H]2c3ccc(C(F)(F)F)cc3C[C@H]2O1 [Ff-630] , HCT116 MTAP-deleted cell lines, CC50 recorded as < 100 nM

Case Cc1ncc2c3cc(C(=O)N(Cc4ccc(C(F)(F)F)cn4)[C@H](C)c4ncccn4)ccc3nc(N)n12 [Fg-5] , HCT116 MTAP-deleted cell lines, CC50 recorded as < 100 nM

Case CN(C(=O)c1ccc2nc(N)c3cncn3c2c1)[C@@H](c1ccc(C(F)(F)F)cc1Cl)C(F)F [Ff-570] , HCT116 MTAP-deleted cell lines, CC50 recorded as 100 to 1000 nM

Case Cc1ncc2c(N)nc3cnc(C(=O)N(C)[C@@H]4COc5cc(C67CC(C6)C7)ccc54)cc3n12 [Ff-466] , HCT116 MTAP-deleted cell lines, CC50 recorded as < 100 nM

Case N#C[C@@H]1C[C@H]1c1ccc2c(c1)C[C@H]1OCCN(C(=O)c3cc4c(cc3F)nc(N)c3cncn34)[C@@H]21 [Ff-448] , HCT116 MTAP-deleted cell lines, CC50 recorded as < 100 nM
